assay: NCI Yeast Anticancer Drug Screen. Data for the rad50 strain (AID 155); conditions: S. cerevisiae rad50 strain growth inhibition; at 50.0 µM; hits give high values
The panel holds about 79,000 compounds, 15% with a hit somewhere; the sample as a whole holds those more often.
# if value of growth inhibition reaches 90%, tag condition met; if it stays below, tag condition not met

>>> classassignment("O=C(O)c1cc[c]([Hg])cc1")
"condition not met"
>>> classassignment("CCC1(O)C(=O)OCc2c1cc1n(c2=O)Cc2cc3ccc(C#N)cc3nc2-1 (stereo not drawn)")
"condition not met"
>>> classassignment("CC(C)(C)C[CH2][Hg][Cl]")
"condition met"
>>> classassignment("CCCCCCCC[N+](CCCC)(CCCC)CCCC (tested in a mixture with another compound)")
"condition met"
>>> classassignment("CCC[CH2][Sn]([Cl])([Cl])[CH2]CCC")
"condition met"
>>> classassignment("CC(C)=CC1CC(C)C2(CCC3(C)CC4C(C(=O)CC4(C)O)/C(C=O)=C\\CC32)O1 (stereo not drawn)")
"condition met"
>>> classassignment("O=C(O)C1(c2ccccc2)OC1c1ccccc1 (stereo not drawn)")
"condition not met"
>>> classassignment("CC1(C)C(=O)C=CC2(C)C1CC(O)C1(C)C2CCC2(C)C(c3ccoc3)OC(=O)C3OC321 (stereo not drawn)")
"condition not met"
>>> classassignment("CC1CN=C(Nc2ccccc2)S1 (stereo not drawn)")
"condition not met"
>>> classassignment("O=c1c(O)c(-c2ccccc2)oc2ccccc12.[Pb]")
"condition met"
>>> classassignment("O=C(Cl)c1ccccn1")
"condition met"
